test-target: GLP-1 receptor
test-summary: cell-based or functional assay
metric-name: GLP-1 Receptor Activation

Prompt: Entry HVEGTWTSDVSSYLEEQAAKEFIAWLVKGRG [Val^8-Trp^12-Glu^22-GLP-1(7-37)OH] : reported GLP-1 Receptor Activation = ?
Completion: 0.8 fold of GLP-1(7-37)OH

Prompt: Data request, read-out GLP-1 Receptor Activation, for HVEGTFTSDCSSYLEGQAAKEFIAWLVKGRG [Val^8-Cys^16-Lys^26-GLP-1(7-37)OH]
Completion: 1.97 fold of GLP-1(7-37)OH

Prompt: // returns reported GLP-1 Receptor Activation for input HVEGTFTSDISSYLEEQAAKEFIAWLVKGRG [Val^8-Ile^16-Glu^22-GLP-1(7-37)OH]
Completion: 1.55 fold of GLP-1(7-37)OH

Prompt: Value lookup for GLP-1 Receptor Activation; key = HVEGTFTSDLSSYLEGQAAKEFIAWLVKGRG [Val^8-Leu^16-GLP-1(7-37)OH]
Completion: 0.52 fold of GLP-1(7-37)OH

Prompt: Would you mind telling me what GLP-1 Receptor Activation value was observed for HVEGTFTSDVSSYFEEQAAKEFIAWLVKGRG [Val^8-Phe^20-Glu^22-GLP-1(7-37)OH] ?
Completion: 1.27 fold of GLP-1(7-37)OH

Prompt: Could you tell me which GLP-1 Receptor Activation is on file for HVEGTFTSDFSSYLEEQAAKEFIAWLVKGRG [Val^8-Phe^16-Glu^22-GLP-1(7-37)OH] ?
Completion: 1.08 fold of GLP-1(7-37)OH

Prompt: Any idea what GLP-1 Receptor Activation was measured for HVEGTYTSDVSSYLEGQAAKEFIAWLVKGRG [Val^8-Tyr^12-GLP-1(7-37)OH] ?
Completion: 0.8 fold of GLP-1(7-37)OH

Prompt: Which measured GLP-1 Receptor Activation value corresponds to HGEGTFTSDVSSYLEGQAAKEFIAWLVKGRG [Gly^8-GLP-1(7-37)OH] ?
Completion: 0.8 fold of GLP-1(7-37)OH

Prompt: Tell me the measured GLP-1 Receptor Activation of HVEGTFTSDYSSFLEGQAAKEFIAWLVKGRG [Val^8-Tyr^16-Phe^19-GLP-1(7-37)OH] , please.
Completion: 1.32 fold of GLP-1(7-37)OH

Prompt: Need GLP-1 Receptor Activation of HVEGTFTSDVSSFLEEQAAKEFIAWLVKGRG [Val^8-Phe^19-Glu^22-GLP-1(7-37)OH] , thanks.
Completion: 0.7 fold of GLP-1(7-37)OH

Prompt: Suppose we examine the binder HVEGTWTSDVSSYLEGQAAKEFIAWLVKGRG [Val^8-Trp^12-GLP-1(7-37)OH] ; what GLP-1 Receptor Activation value has been reported?
Completion: 0.52 fold of GLP-1(7-37)OH

Prompt: What measured GLP-1 Receptor Activation goes with HVEGTFTSDWSSYLEEQAVKEFIAWLIKGRG [Val^8-Trp^16-Glu^22-Val^25-Ile^33-GLP-1(7-37)OH] ?
Completion: 2.35 fold of GLP-1(7-37)OH
